meta.source: PubChem BioAssay

Target: L-lactate dehydrogenase (Plasmodium falciparum (isolate CDC / Honduras))
Assay: PfLDH activity inhibition – cell lysate, 3D7 strain, counter-screen for P. falciparum growth inhibition project (AID 2304);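 also: 0% = vehicle and 100% = reference inhibitor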
Conditions: P. falciparum 3D7 crude extract, LDH APAD/NBT absorbance; at 2 µM; stronger effect = higher value
Calls of active or inactive are those of the source. No rule for the calls is given here.
measured.quantity: inhibition

[[record]]
molecule = "c1ccc(CN2CCc3cc4nccc(N5CCNCC5)c4cc32)cc1"
measured_quantity = "inhibition"
result = "-4% (inactive)"

[[record]]
molecule = "O=C(Nc1ccc(C(=O)N2CCN(CCN3CCN(c4cccc(C(F)(F)F)c4)CC3)CC2)cc1)c1ccc(OC(F)(F)F)cc1"
measured_quantity = "inhibition"
result = "7% (inactive)"

[[record]]
molecule = "COc1ccc(C2CCN(CCCCNC(=O)c3ccc(NC(=O)c4ccc(Cl)cc4)cc3)C2)c(OC)c1 (configuration not stated)"
measured_quantity = "inhibition"
result = "2% (inactive)"


Tell me measured inhibition for CN1CCCN(Cc2ccc(-c3ccc(NC(=O)c4cccc(C#N)c4)cc3)cc2)CC1 please.
-8% (inactive)

Note down inhibition recorded for COc1ccc(CNCc2cccc(-c3cccc(-c4nc5ccc(F)cc5[nH]4)c3)c2)cc1
5% (inactive)

Fill in inhibition for record NOCCCCOc1ccc(Br)cc1
-2% (inactive)

Tell me its inhibition given Nc1ccc2nc(C=Cc3ccccc3)[nH]c2c1 as the entry.
1% (inactive)

Report inhibition for O=C(/C=C/c1ccc(Cl)c(Cl)c1)NCCCCCN1CCC(CCNC(=O)C2(c3ccc(Cl)cc3)CC2)CC1
-3% (inactive)

Given the molecule CC(C)N=C(N)NN=Cc1ccc(Cl)c(Cl)c1 , write its reported inhibition.
-2% (inactive)

// Input: C#C[C@H]1O[C@@H](n2cnc3c(Nc4cc(Br)cc(C(F)(F)F)c4)ncnc32)[C@H](O)[C@@H]1O . Output its inhibition only.
4% (inactive)

Provide measured inhibition value, entry: O=c1cc(NCCCNC2CCc3c(Cl)cc(Cl)cc32)[nH]c2ccccc12 (configuration not stated)
0% (inactive)

Return inhibition for the following molecule: Cc1cc(NCc2ccccc2)nc(NCc2ccccc2)n1
5% (inactive)

Provide inhibition value for the following molecule: CC(=O)c1ccc(NC(=O)CSc2nc(-c3ccccc3Cl)ns2)cc1
-1% (inactive)

# return recorded inhibition for entry CC1(C)N=C(N)N=C(N)N1OCCCc1cccc(C(F)(F)F)c1
-3% (inactive)

Quote inhibition reported for CCOc1ccc2nc(C)cc(NN=Cc3ccc(Cl)cc3)c2c1 please.
5% (inactive)

====

Assay: antimalarial activity against Dd2 strain (AID 2302);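 also: 0% = DMSO untreated growth and 100% = chloroquine plus artemisinin killed control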
Settings: P. falciparum Dd2 in RBCs, LDH growth readout, 72 h; at 2 µM
Calls of active or inactive are those of the source.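 The calls were made as follows: active = growth inhibition above 50% at the single 2 µM test dose, taken to imply half-maximal potency below 2 µM; inactive = the rest.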
The categories you may choose from are 1.0 = active, 0.0 = inactive

As a guide, the following entries are already answered.
[[record]]
molecule = "CCOc1cc(C(=O)Nc2ccc3nc(N4CCN(C)CC4)cc(C)c3c2)cc(OCC)c1OCC"
group_label = 1.0

[[record]]
molecule = "COc1ccc2nccc(N(C)CC3(O)CCN(CC(O)c4ccc5c(c4)NC(=O)CS5)CC3)c2n1 (configuration not stated)"
group_label = 0.0

[[record]]
molecule = "O[C@@H](c1cccc2ccccc12)[C@@H]1CN(CCc2ccccc2)CC[C@@]1(O)c1ccccc1"
group_label = 1.0

[[record]]
molecule = "CN(C)CCNCc1cccc(-c2ccc3c(Nc4ccc(F)cc4Cl)ccnc3c2)c1"
group_label = 1.0


Hey, what did the test say about C[C@H](Cc1ccc(OCCCCCCOc2ccc(C[C@@H](C)N[C@H](C)c3ccccc3)cc2)cc1)NC[C@H](O)c1cccc(Cl)c1 ?
1.0

Hi, do you know how COc1ccc(CCn2c(=N)c(C(=O)NCc3ccc(C)cc3)cc3c(=O)n4ccccc4nc32)cc1 came out in this test?
0.0

Hi, sorry to bother you, what did the test record for O=C(Nc1ccc(F)cc1)c1ccc(C(=O)NC2CCN(CC3CCCCC3)CC2)cc1 ?
0.0
